# Test system: serum proteins
# Assay info: protein binding to serum proteins (Sephadex G-50 size-exclusion chromatography)
# Assay type: in vitro ADME
# Cond: human serum, 37° C., 24 h
Where a SMILES comes first, the peptide text is derived from it. [ ]: non-standard residue; d: D form. The star is where a group is joined. DOTA = O=C(O)CN1CCN(CC(=O)O)CCN(CC(=O)*)CCN(CC(=O)O)CC1; 1Nal = N[C@@H](Cc1cccc2ccccc12)C(=O)O; NMeNle = CCCC[C@H](NC)C(=O)O
Here, each record is paired with measured Percentage of radioligand bound to serum proteins after 24 h incubation data.

Worked set:
| Compound | Result |
| --- | --- |
| CCCC[C@@H](C(=O)N[C@@H](CC(=O)O)C(=O)N(C)[C@@H](Cc1cccc2ccccc12)C(N)=O)N(C)C(=O)[C@H](Cc1c[nH]c2ccccc12)NC(=O)CNC(=O)[C@H](Cc1ccc(O)cc1)NC(=O)[C@H](C)NC(=O)[C@@H](CCC(=O)O)NC(=O)CN1CCN(CC(=O)O)CCN(CC(=O)O)CCN(CC(=O)O)CC1 [^111In-DOTA-MGS11, metal not drawn] | ~30% |
| CCCC[C@@H](C(=O)N[C@@H](CC(=O)O)C(=O)N(C)[C@@H](Cc1ccccc1)C(N)=O)N(C)C(=O)[C@H](Cc1c[nH]c2ccccc12)NC(=O)CNC(=O)[C@H](Cc1ccc(O)cc1)NC(=O)[C@H](C)NC(=O)[C@@H](CCC(=O)O)NC(=O)CN1CCN(CC(=O)O)CCN(CC(=O)O)CCN(CC(=O)O)CC1 [^111In-DOTA-MGS4, metal not drawn, reference compound] | ~12% |
| CCCC[C@@H](C(=O)N[C@@H](CC(=O)O)C(=O)N[C@@H](Cc1cccc2ccccc12)C(N)=O)N(C)C(=O)[C@H](Cc1c[nH]c2ccccc12)NC(=O)CNC(=O)[C@H](Cc1ccc(O)cc1)NC(=O)[C@H](C)NC(=O)[C@@H](CCCCN)NC(=O)CN1CCN(CC(=O)O)CCN(CC(=O)O)CCN(CC(=O)O)CC1 [^111In-DOTA-MGS9, metal not drawn] ({DOTA}-[dK]AYGW[NMeNle]D[1Nal]-NH2) | ~30% |

Could you now consider this next compound?
Bench note: what Percentage of radioligand bound to serum proteins after 24 h incubation did CSCC[C@H](NC(=O)[C@H](Cc1c[nH]c2ccccc12)NC(=O)CNC(=O)[C@H](Cc1ccc(O)cc1)NC(=O)[C@H](C)NC(=O)[C@@H](CCC(=O)O)NC(=O)CN1CCN(CC(=O)O)CCN(CC(=O)O)CCN(CC(=O)O)CC1)C(=O)N[C@@H](CC(=O)O)C(=O)N[C@@H](Cc1ccccc1)C(N)=O [^111In-DOTA-MG11, metal not drawn, reference compound] ({DOTA}-[dE]AYGWMDF-NH2) show?
< 10%

###

# Assay info: stability in vivo (radio-HPLC of blood sample)
# Cond: BALB/c mice, i.v., 30 min p.i.
Where a SMILES comes first, the peptide text is derived from it. [ ]: non-standard residue; d: D form. The star is where a group is joined. DOTA = O=C(O)CN1CCN(CC(=O)O)CCN(CC(=O)*)CCN(CC(=O)O)CC1; 1Nal = N[C@@H](Cc1cccc2ccccc12)C(=O)O; NMeNle = CCCC[C@H](NC)C(=O)O
Quantity: intact radioligand present in the blood at 30 min p.i.
Please report the result as a number followed by the unit.

See these solved cases before continuing.
| Molecule | Result |
| --- | --- |
| CCCC[C@@H](C(=O)N[C@@H](CC(=O)O)C(=O)N[C@@H](Cc1cccc2ccccc12)C(N)=O)N(C)C(=O)[C@H](Cc1c[nH]c2ccccc12)NC(=O)CNC(=O)[C@H](Cc1ccc(O)cc1)NC(=O)[C@@H]1CCCN1C(=O)[C@@H](CCC(=O)O)NC(=O)CN1CCN(CC(=O)O)CCN(CC(=O)O)CCN(CC(=O)O)CC1 [^177Lu-DOTA-MGS8, metal not drawn] ({DOTA}-[dE]PYGW[NMeNle]D[1Nal]-NH2) | 56.8% |
| CSCC[C@H](NC(=O)[C@H](Cc1c[nH]c2ccccc12)NC(=O)CNC(=O)[C@H](Cc1ccc(O)cc1)NC(=O)[C@H](C)NC(=O)[C@@H](CCC(=O)O)NC(=O)[C@@H](CCC(=O)O)NC(=O)[C@@H](CCC(=O)O)NC(=O)[C@@H](CCC(=O)O)NC(=O)[C@@H](CCC(=O)O)NC(=O)[C@@H](CCC(=O)O)NC(=O)CN1CCN(CC(=O)O)CCN(CC(=O)O)CCN(CC(=O)O)CC1)C(=O)N[C@@H](CC(=O)O)C(=O)N[C@@H](Cc1ccccc1)C(N)=O [^177Lu-PP-F11, metal not drawn, reference compound] | 5.5% |
| CCCC[C@@H](C(=O)N[C@@H](CC(=O)O)C(=O)N[C@@H](Cc1cccc2ccccc12)C(N)=O)N(C)C(=O)[C@H](Cc1c[nH]c2ccccc12)NC(=O)CNC(=O)[C@H](Cc1ccc(O)cc1)NC(=O)[C@H](C)NC(=O)[C@@H](CCC(=O)O)NC(=O)CN1CCN(CC(=O)O)CCN(CC(=O)O)CCN(CC(=O)O)CC1 [^177Lu-DOTA-MGS5, metal not drawn] | 77.0% |

Turning now to a further record.
# get_value(readout='intact radioligand present in the blood at 30 min p.i.', item= CCCC[C@H](NC(=O)[C@H](Cc1c[nH]c2ccccc12)NC(=O)CNC(=O)[C@H](Cc1ccc(O)cc1)NC(=O)[C@H](C)NC(=O)[C@@H](CCC(=O)O)NC(=O)[C@@H](CCC(=O)O)NC(=O)[C@@H](CCC(=O)O)NC(=O)[C@@H](CCC(=O)O)NC(=O)[C@@H](CCC(=O)O)NC(=O)[C@@H](CCC(=O)O)NC(=O)CN1CCN(CC(=O)O)CCN(CC(=O)O)CCN(CC(=O)O)CC1)C(=O)N[C@@H](CC(=O)O)C(=O)N[C@@H](Cc1ccccc1)C(N)=O [^177Lu-PP-F11N, metal not drawn, reference compound] )
12.7%
